B1: library; numbered along this chain (parent)
chain: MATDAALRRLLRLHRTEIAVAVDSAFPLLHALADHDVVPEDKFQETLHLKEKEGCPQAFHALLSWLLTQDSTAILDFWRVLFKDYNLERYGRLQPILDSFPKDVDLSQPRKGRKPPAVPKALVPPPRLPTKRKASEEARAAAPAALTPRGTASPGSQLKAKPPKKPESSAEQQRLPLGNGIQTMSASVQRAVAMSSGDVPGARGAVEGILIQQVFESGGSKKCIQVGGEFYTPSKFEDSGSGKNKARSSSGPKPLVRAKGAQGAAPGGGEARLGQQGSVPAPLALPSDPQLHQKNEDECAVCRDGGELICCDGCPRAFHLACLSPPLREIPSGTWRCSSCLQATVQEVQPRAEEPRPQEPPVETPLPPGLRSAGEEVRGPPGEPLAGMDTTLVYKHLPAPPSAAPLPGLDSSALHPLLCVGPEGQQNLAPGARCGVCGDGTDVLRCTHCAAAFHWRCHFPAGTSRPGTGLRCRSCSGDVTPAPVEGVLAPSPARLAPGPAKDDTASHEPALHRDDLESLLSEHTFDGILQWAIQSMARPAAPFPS

- Variants of: B1
- ASSAY DETAILS: AIRE transcriptional activation functional score (insulin promoter-GFP; nonsense median 0, synonymous median 1) (normalised score); higher = higher AIRE activity (more reporter activation)
- STATED CONDITIONS: with insulin promoter-GFP reporter in HEK293
REPORTED METRIC: AIRE transcriptional activation functional score

> print(dat)
    variant.annotation  reading
 1               P282D     1.05
 2               S339Y     1.09
 3               R456Q     1.13
 4               V214W    0.402
 5               P331H    0.817
 6                H14D   -0.577
 7               P126F    0.304
 8               L175W      1.8
 9                L66E   -0.037
10                I96R   0.0358
11               Q189L    0.207
12                 R8T  -0.0815
13               A138W     1.66
14               G112R    0.278
15               P163C     1.48
16               P148E     1.67
17               V377R     1.09
18               F525T   -0.259
19               L511H     0.98
20               Q426R    0.722
21               D238H     1.34
22               G251P  -0.0792
23               D515G    0.421
24               S239E    0.783
25               Q426A   -0.467
26               G382F     1.11
27                H30K    0.682
28               G155S    0.589
29               A117D    0.179
30                K50S     2.07
31               A202T    0.777
32               L273P     1.11
33               F215G    0.391
34               D103S     1.85
35               S168N    0.613
36               L327D     0.96
37               A510C     1.24
38               G306Y    0.924
39               R473K     0.66
40               G228H       -2
41                A61S     1.48
42               T391L     1.06
43               G227P    0.459
44               P481Q    0.501
45                H35F   0.0268
46               P499A     1.22
47               P405H     1.04
48               C223A    0.737
49               G150P    0.879
50               P289M     1.35
51               T480H     1.18
52               T463G     1.01
53               G306I    0.377
54               C299R    0.523
55               P109E    0.161
56               T463F   0.0316
57               A541V      1.1
58               A399I    0.768
59               A264I    -1.66
60               S169N     1.18
61               S402A     1.05
62                R92C    0.489
63                A21S   0.0464
64               P416C     1.46
65               R303Q     1.23
66                L29F   -0.401
67               P384N    0.179
68               A373E     1.28
69               A300S    0.968
70               L122S     1.44
71               L308Q      1.3
72               T468L     1.18
73               P361K     1.12
74               C310I    0.643
75               D442W  -0.0188
76               V362I     1.32
77                V20D   0.0604
78               T344E    0.714
79               T447E    0.425
80               A373R    0.736
81               L320W    0.685
82               G333V     1.05
83               G274P    0.734
84                Q44M   -0.749
85               G228L    -1.11
86               L409H     0.62
87               L529A   -0.089
88               L175N    0.295
89               P416W      1.5
90               V479K    0.833
91               G208L    0.332

Hey, just so you know, these numbers are from the supplement of paper PMC12667976.
